test-name: in vitro
stated-conditions: human, 50% human plasma (pooled, sodium heparin) in PBS, pH 7.4
# remaining at 3 h, 20 µM annotations
Report the figure in % without appending any unit label.

Sample answers from the record:
compound	units-label	remaining at 3 h, 20 µM
CCCCCCCCCCC(=O)N[C@@H](CCCCN)C(=O)N[C@@H](CCCCN)C(=O)N[C@@H](CCCCN)C(=O)N[C@@H](CCCCNC(=O)[C@H]1NC(=O)[C@H]2NC(=O)[C@H](NC(=O)[C@@H]3NC(=O)[C@H](CC(N)=O)NC(=O)[C@H](NC(=O)[C@@H](CC(C)C)NC)[C@H](O)c4ccc(c(Cl)c4)Oc4cc3cc(c4O[C@@H]3O[C@H](CO)[C@@H](O)[C@H](O)[C@H]3O[C@H]3C[C@](C)(N)[C@H](O)[C@H](C)O3)Oc3ccc(cc3Cl)[C@H]2O)c2ccc(O)c(c2)-c2c(O)cc(O)cc21)C(=O)O [Compound 18, nC10CO-KKK-K(Vancomycin)-OH]	%	87
CCCCCCCCCCC(=O)N[C@@H](CCCCNC(=O)[C@H]1NC(=O)[C@H]2NC(=O)[C@H](NC(=O)[C@@H]3NC(=O)[C@H](CC(N)=O)NC(=O)[C@H](NC(=O)[C@@H](CC(C)C)NC)[C@H](O)c4ccc(c(Cl)c4)Oc4cc3cc(c4O[C@@H]3O[C@H](CO)[C@@H](O)[C@H](O)[C@H]3O[C@H]3C[C@](C)(N)[C@H](O)[C@H](C)O3)Oc3ccc(cc3Cl)[C@H]2O)c2ccc(O)c(c2)-c2c(O)cc(O)cc21)C(=O)O [Compound 20, nC10CO-K(Vancomycin)-OH]	%	101

Now look at this one.
## Input Query remaining at 3 h, 20 µM for CN[C@H](CC(C)C)C(=O)N[C@H]1C(=O)N[C@@H](CC(N)=O)C(=O)N[C@H]2C(=O)N[C@H]3C(=O)N[C@H](C(=O)N[C@H](C(=O)O)c4cc(O)cc(O)c4-c4cc3ccc4O)[C@H](O)c3ccc(c(Cl)c3)Oc3cc2cc(c3O[C@@H]2O[C@H](CO)[C@@H](O)[C@H](O)[C@H]2O[C@H]2C[C@](C)(N)[C@H](O)[C@H](C)O2)Oc2ccc(cc2Cl)[C@H]1O
## Output 87

* * *

System: Vancomycin-resistant (VanA) Enterococcus faecium ATCC 51559
test-name: microbe, parasite or virus in culture
stated-conditions: ATCC 51559
readout-kind: MIC VRE (µg/mL)
Report only the number, with the unit µg/mL understood.

compound	target-or-system	readout-kind	units-label	value-measured
CCCCCCCCCCCCCC(=O)NCC(=O)N[C@@H](CO)C(=O)N[C@@H](CCCCN)C(=O)N[C@@H](CCCCN)C(=O)N[C@@H](CCCCN)C(=O)N[C@@H](CSSCCNC(=O)[C@H]1NC(=O)[C@H]2NC(=O)[C@H](NC(=O)[C@@H]3NC(=O)[C@H](CC(N)=O)NC(=O)[C@H](NC(=O)[C@@H](CC(C)C)NC)[C@H](O)c4ccc(c(Cl)c4)Oc4cc3cc(c4O[C@@H]3O[C@H](CO)[C@@H](O)[C@H](O)[C@H]3O[C@H]3C[C@](C)(N)[C@H](O)[C@H](C)O3)Oc3ccc(cc3Cl)[C@H]2O)c2ccc(O)c(c2)-c2c(O)cc(O)cc21)C(=O)O [Compound 14]	Vancomycin-resistant (VanA) Enterococcus faecium ATCC 51559	MIC VRE	µg/mL	0.09

## Input Return the recorded MIC VRE value; entry: CCCCCCCCCCC(=O)N[C@@H](CCCCN)C(=O)N[C@@H](CCCCN)C(=O)N[C@@H](CCCCNC(=O)[C@H]1NC(=O)[C@H]2NC(=O)[C@H](NC(=O)[C@@H]3NC(=O)[C@H](CC(N)=O)NC(=O)[C@H](NC(=O)[C@@H](CC(C)C)NC)[C@H](O)c4ccc(c(Cl)c4)Oc4cc3cc(c4O[C@@H]3O[C@H](CO)[C@@H](O)[C@H](O)[C@H]3O[C@H]3C[C@](C)(N)[C@H](O)[C@H](C)O3)Oc3ccc(cc3Cl)[C@H]2O)c2ccc(O)c(c2)-c2c(O)cc(O)cc21)C(N)=O [Compound 21, nC10CO-KK-K(Vancomycin)-NH2]
## Output 2
